Just for reference, patent US20260193366A1 is where these values come from.

Parameter KD Relative to Dupilumab: see the listing below.
- SYSTEM: T1, cynomolgus monkey IL-4Rα (cynomolgus monkey, UniProt P24394 26-231 (human entry), limits assumed)
- T1 construct: also called Cyno IL-4Rα; cyIL-4Rα
- T1 chain: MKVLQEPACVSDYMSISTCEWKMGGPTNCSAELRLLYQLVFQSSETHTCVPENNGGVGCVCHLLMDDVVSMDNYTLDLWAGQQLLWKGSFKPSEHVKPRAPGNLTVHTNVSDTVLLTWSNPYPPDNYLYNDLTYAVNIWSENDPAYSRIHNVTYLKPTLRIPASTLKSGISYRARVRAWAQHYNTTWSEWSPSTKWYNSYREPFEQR
- MEASUREMENT PROTOCOL: SPR, Carterra LSA;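 note: antibodies captured on an anti-human Fc sensor chip, antigen injected at several concentrations, association and dissociation rates fitted with a 1:1 Langmuir model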
// return a plain number; no unit text

Some binders with recorded KD Relative to Dupilumab:
INSERT INTO measurements (binder, readout_number) VALUES
  ('Construct 36 (mAb469) (antibody, IgG4, V domains shown, VH/VL only) VH: EVQLVESGGGLEQPGGSLRLSCAGSGFTFRDFAMTWVRQAPGKGLEWVSSISGSGGNIYYADSVKGRFTISRDNSKNTLYLQMNSLRAEDTAVYYCAKDRLSKTIRPRYYGLDVWGQGTTVTVSS VL: DIVMTQSPLSLPVTPGEPASISCRSSQSLLYSIGKNYVDWYLQKSGQSPQLLIYEGNNRASGVPDRFSGSGSGTDFTLKISRVEAEDVGFYYCMQSLTSPYTFGQGTKLEIK', 0.61),
  ('Construct 35 (mAb467) (antibody, IgG4, V domains shown, VH/VL only) VH: EVQLVESGGGLEQPGGSLRLSCAGSGFTFRTYAMTWVRQAPGKGLEWVSSISGSGGNTYYADSVKGRFTISRDNSKNTLYLQMNSLRAEDTAVYYCAKDRVSITIRPRYYGLDVWGQGTTVTVSS VL: DIVMTQSPLSLPVTPGEPASISCTSSQSLLYSIGKNYVDWYLQKSGQSPQLLIYEGNNRATGVPDRFSGSGSGTDFTLKISRVEAEDVGFYYCMQSLTSPYTFGQGTKLEIK', 0.29),
  ('Construct 26 (mAb434) (antibody, IgG4, V domains shown, VH/VL only) VH: EVQLVESGGGLEQPGGSLRLSCAGSGFTFRDFAMTWVRQAPGKGLEWVSSISGGGGSTYYADSVKGRFTISRDNSKNTLYLQMNSLRAEDTAVYYCAKDRLSIAVRPRYYGLDVWGQGTTVTVSS VL: DIVMTQSPLSLPVTPGEPASISCTASQSLLYSIGYNYVDWYLQKSGQSPQLLIYLGNKRASGVPDRFSGSGSGTDFTLKISRVEAEDVGFYYCMQSLTSPYTFGQGTKLEIK', 0.26),
  ('Construct 24 (mAb432) (antibody, IgG4, V domains shown, VH/VL only) VH: EVQLVESGGGLEQPGGSLRLSCAGSGFTFRDFAMTWVRQAPGKGLEWVSSISGSGGNIYYADSVKGRFTISRDNSKNTLYLQMNSLRAEDTAVYYCAKDRLSIAVRPRYYGLDVWGQGTTVTVSS VL: DIVMTQSPLSLPVTPGEPASISCTASQSLLYSIGKNYVDWYLQKSGQSPQLLIYLGNNRATGVPDRFSGSGSGTDFTLKISRVEAEDVGFYYCMQSLTSPYTFGQGTKLEIK', 0.11),
  ('Construct 18 (mAb426) (antibody, IgG4, V domains shown, VH/VL only) VH: EVQLVESGGGLEQPGGSLRLSCAGSGFTFRDFAMTWVRQAPGKGLEWVSSISGSGDNTYYADSVKGRFTISRDNSKNTLYLQMNSLRAEDTAVYYCAKDRLSKTIRPRYYGLDVWGQGTTVTVSS VL: DIVMTQSPLSLPVTPGEPASISCTSSQSLLYSIGKNYVDWYLQKSGQSPQLLIYLGNKRASGVPDRFSGSGSGTDFTLKISRVEAEDVGFYYCMQSLTSPYTFGQGTKLEIK', 0.09),
  ('Construct 41 (mAb478) (antibody, IgG4, V domains shown, VH/VL only) VH: EVQLVESGGGLEQPGGSLRLSCAGSGFTFRDFAMTWVRQAPGKGLEWVSSISGGGGNTYYADSVKGRFTISRDNSKNTLYLQMNSLRAEDTAVYYCAKDRVSITIRPRYYGLDVWGQGTTVTVSS VL: DIVMTQSPLSLPVTPGEPASISCTASQSLLYSIGYNYVDWYLQKSGQSPQLLIYLGNKRASGVPDRFSGSGSGTDFTLKISRVEAEDVGFYYCMQAYNSPYTFGQGTKLEIK', 0.39),
  ('Construct 20 (mAb428) (antibody, IgG4, V domains shown, VH/VL only) VH: EVQLVESGGGLEQPGGSLRLSCAGSGFTFRDFAMTWVRQAPGKGLEWVSSISGSGDNTYYADSVKGRFTISRDNSKNTLYLQMNSLRAEDTAVYYCAKDRLSITVRPRYYGLDVWGQGTTVTVSS VL: DIVMTQSPLSLPVTPGEPASISCTSSQSLLYSIGYNYVDWYLQKSGQSPQLLIYLGNKRASGVPDRFSGSGSGTDFTLKISRVEAEDVGFYYCMQSLQTPYVFGQGTKLEIK', 0.13),
  ('Construct 8 (mAb417) (antibody, IgG4, V domains shown, VH/VL only) VH: EVQLVESGGGLEQPGGSLRLSCAGSGFTFRDFAMTWVRQAPGKGLEWVSSISGSGDNIYYADSVKGRFTISRDNSKNTLYLQMNSLRAEDTAVYYCAKDRLSVTVRPRYYGLDVWGQGTTVTVSS VL: DIVMTQSPLSLPVTPGEPASISCRSTQSLLYSIGKNYVDWYLQKSGQSPQLLIYLGNNRATGVPDRFSGSGSGTDFTLKISRVEAEDVGFYYCMQALTTPYAFGQGTKLEIK', 0.25);

Incoming: Please report the recorded KD Relative to Dupilumab for Construct 21 (mAb429) (antibody, IgG4, V domains shown, VH/VL only) VH: EVQLVESGGGLEQPGGSLRLSCAGSGFTFRTYAMTWVRQAPGKGLEWVSSISGSGGNIYYADSVKGRFTISRDNSKNTLYLQMNSLRAEDTAVYYCAKDRVSIYVRPRYYGLDVWGQGTTVTVSS VL: DIVMTQSPLSLPVTPGEPASISCTASQSLLYSIGYNYVDWYLQKSGQSPQLLIYLGSKRASGVPDRFSGSGSGTDFTLKISRVEAEDVGFYYCMQSLTSPYTFGQGTKLEIK .
Outgoing: 0.02

Incoming: Now this one: Construct 23 (mAb431) (antibody, V domains shown, VH/VL only) VH: EVQLVESGGGLEQPGGSLRLSCAGSGFTFRDFAMTWVRQAPGKGLEWVSSISGGGGSTYYADSVKGRFTISRDNSKNTLYLQMNSLRAEDTAVYYCAKDRLSVTVRPRYYGLDVWGQGTTVTVSS VL: DIVMTQSPLSLPVTPGEPASISCRSSQSVLYSIGKNYVDWYLQKSGQSPQLLIYLGSQRATGVPDRFSGSGSGTDFTLKISRVEAEDVGFYYCMQSLTSPYTFGQGTKLEIK
Outgoing: 0.1
